pIC50: −log10 of the molar value.
Please find below pIC50 data on UniProtKB O14672 compiled from the literature.

Study these solved cases before continuing.
Compound	Tested system	pIC50
O=C(NO)[C@H]1CN(C(=O)NCCN2CCCC2)CCN1S(=O)(=O)c1cc(F)c(Oc2ccc(Cl)cc2)c(F)c1	UniProtKB O14672	> 7.30
O=C(NCC(C(=O)NO)N1CCN(Cc2ccccc2)CC1)c1ccc(OCc2c(C(F)(F)F)nn3ccccc23)cc1 (stereo not drawn)	UniProtKB O14672	< 5.00
O=C(NO)[C@H]1CN(C(=O)N2CCOCC2)CCN1S(=O)(=O)c1ccc(-c2cccc(F)c2)nc1	UniProtKB O14672	> 7.30
CN1CCN(C(=O)N2CCN(S(=O)(=O)c3cc(F)c(Oc4ccc(Cl)cc4)c(F)c3)[C@@H](C(=O)NO)C2)CC1	UniProtKB O14672	> 7.30

Lab note: record pIC50 of `O=C(NO)[C@H]1CN(C(=O)c2cc(F)c(O)c(F)c2)CCN1S(=O)(=O)c1cc(F)c(Oc2ccc(Cl)cc2)c(F)c1` tested on UniProtKB O14672.
> 7.30

Lab note: record pIC50 of `O=C(NO)[C@H]1CN(S(=O)(=O)NC(=O)N2CCOCC2)CCN1S(=O)(=O)c1cc(F)c(Oc2ccc(Cl)cc2)c(F)c1` tested on UniProtKB O14672.
> 7.30
